# details: in isopropanol, 300.9 K
metric.name: solubility (mole fraction)
# output: bare number, no unit

IN: Provide one value: measured solubility (mole fraction) of CCn1c2ccccc2c2cc(-n3nncc3-c3ccccc3)ccc21
OUT: 0.000684

###

# details: in n-butanol, 292.7 K
metric.name: solubility (mole fraction)
# output: bare number, no unit

IN: Provide one value: measured solubility (mole fraction) of CCn1c2ccccc2c2cc(-n3nncc3-c3ccccc3)ccc21
OUT: 0.00111

###

# details: in n-butanol, 280.1 K
metric.name: solubility (mole fraction)
# output: bare number, no unit

IN: Provide one value: measured solubility (mole fraction) of CCn1c2ccccc2c2cc(-n3nncc3-c3ccccc3)ccc21
OUT: 0.000585

###

# details: in n-propanol, 325.2 K
metric.name: solubility (mole fraction)
# output: bare number, no unit

IN: Provide one value: measured solubility (mole fraction) of CCn1c2ccccc2c2cc(-n3nncc3-c3ccccc3)ccc21
OUT: 0.00418

###

# details: in n-propanol, 307 K
metric.name: solubility (mole fraction)
# output: bare number, no unit

IN: Provide one value: measured solubility (mole fraction) of CCn1c2ccccc2c2cc(-n3nncc3-c3ccccc3)ccc21
OUT: 0.00177

###

# details: in ethanol, 281.5 K
metric.name: solubility (mole fraction)
# output: bare number, no unit

IN: Provide one value: measured solubility (mole fraction) of CCn1c2ccccc2c2cc(-n3nncc3-c3ccccc3)ccc21
OUT: 0.000428

###

# details: in methanol, 279.3 K
metric.name: solubility (mole fraction)
# output: bare number, no unit

IN: Provide one value: measured solubility (mole fraction) of CCn1c2ccccc2c2cc(-n3nncc3-c3ccccc3)ccc21
OUT: 0.000409

###

# details: in ethyl acetate, 318 K
metric.name: solubility (mole fraction)
# output: bare number, no unit

IN: Provide one value: measured solubility (mole fraction) of CCn1c2ccccc2c2cc(-n3nncc3-c3ccccc3)ccc21
OUT: 0.0129

###

# details: in ethyl acetate, 278.9 K
metric.name: solubility (mole fraction)
# output: bare number, no unit

IN: Provide one value: measured solubility (mole fraction) of CCn1c2ccccc2c2cc(-n3nncc3-c3ccccc3)ccc21
OUT: 0.00403

###

# details: in n-propanol, 297.1 K
metric.name: solubility (mole fraction)
# output: bare number, no unit

IN: Provide one value: measured solubility (mole fraction) of CCn1c2ccccc2c2cc(-n3nncc3-c3ccccc3)ccc21
OUT: 0.00111

###

# details: in isopropanol, 319.5 K
metric.name: solubility (mole fraction)
# output: bare number, no unit

IN: Provide one value: measured solubility (mole fraction) of CCn1c2ccccc2c2cc(-n3nncc3-c3ccccc3)ccc21
OUT: 0.00181

###

# details: in sec-butanol, 319.1 K
metric.name: solubility (mole fraction)

IN: Provide one value: measured solubility (mole fraction) of CCn1c2ccccc2c2cc(-n3nncc3-c3ccccc3)ccc21
OUT: 0.00295

###

# details: in ethyl acetate, 293.8 K
metric.name: solubility (mole fraction)
# output: bare number, no unit

IN: Provide one value: measured solubility (mole fraction) of CCn1c2ccccc2c2cc(-n3nncc3-c3ccccc3)ccc21
OUT: 0.0062

###

# details: in ethyl acetate, 326.9 K
metric.name: solubility (mole fraction)
# output: bare number, no unit

IN: Provide one value: measured solubility (mole fraction) of CCn1c2ccccc2c2cc(-n3nncc3-c3ccccc3)ccc21
OUT: 0.0182
